Test system: Prostate-specific Antigen (PSA) production in LNCaP cells
Assay: PSA assay: inhibition of PSA production in LNCaP cells (ELISA)
Assay type: cell-based
Conditions: Homo sapiens, 72 h, R1881 1 ng/ml, three days, seven point assay
Exercise: state measured pIC50 for each of the molecules provided.
Answers are plain numbers, as −log10 of the molar value.

CNC(=O)c1ccc(N2C(=S)N(c3ccc(C#N)c(Cl)c3F)C(=O)C2(C)C)cc1F    6.64
CNC(=O)c1ccc(N2C(=S)N(c3ccc(C#N)c(C(F)(F)F)c3F)C(=O)C2(C)C)cc1F    6.55
COc1c(C#N)ccc(N2C(=O)C(C)(C)N(c3ccc(C)nc3)C2=S)c1F    6.55
CC1(C)C(=O)N(c2ccc(C#N)c(Cl)c2F)C(=S)N1c1ccc(C#N)cc1    7.04
CC1(C)C(=O)N(c2ccc(C#N)c(C(F)(F)F)c2F)C(=S)N1c1ccc(C#N)cc1    6.31
CNC(=O)c1ccc(N2C(=S)N(c3ccc(C#N)c(C(F)(F)F)c3F)C(=O)C23CCC3)cc1F    6.42
CC(O)(CS(=O)(=O)c1ccc(F)cc1)C(=O)Nc1ccc(C#N)c(C(F)(F)F)c1 (stereo not drawn) [Bicalutamide, bicalutamide, reference compound]    5.51
CNC(=O)c1ccc(N2C(=S)N(c3ccc(C#N)c(OC)c3)C(=O)C23CCC3)cc1F    6.35
CNC(=O)c1ccc(N2C(=S)N(c3cc(F)c(C#N)cc3F)C(=O)C23CCC3)cc1F    5.68
Cc1ccc(N2C(=S)N(c3ccc(C#N)c(Cl)c3F)C(=O)C2(C)C)cn1    6.51

State recorded pIC50 for all listed molecules.
1. Cc1ccc(N2C(=S)N(c3ccc(C#N)c(Cl)c3F)C(=O)C2(C)C)cc1F
2. CC1(C)C(=O)N(c2ccc(C#N)c(C(F)(F)F)c2F)C(=S)N1c1ccc(S(C)(=O)=O)cc1
3. COc1c(C#N)ccc(N2C(=O)C(C)(C)N(c3ccc(S(C)(=O)=O)cc3)C2=S)c1F
4. Cc1ccc(N2C(=S)N(c3ccc(C#N)c(Cl)c3F)C(=O)C2(C)C)cc1
5. Cc1ccc(N2C(=S)N(c3ccc(C#N)c(C#N)c3)C(=O)C2(C)C)cc1

Return:
1. 6.38
2. 6.28
3. 5.74
4. 6.55
5. 6.70

====

So I've got a bunch of molecules here, and I need their IC50 values.
Tested on: Prostate-specific Antigen (PSA) production in LNCaP cells
Experiment: PSA assay: inhibition of PSA production in LNCaP cells (ELISA)
Format: cell-based
Conditions: Homo sapiens, 72 h, R1881 1 ng/ml, three days, seven point assay
Numbers only, in nM.

COc1c(C#N)ccc(N2C(=O)C(C)(C)N(c3ccc(C#N)cc3)C2=S)c1F    120
CNC(=O)c1ccc(N2C(=S)N(c3ccc(C#N)c(Cl)c3F)C(=O)C23CCC3)cc1F    850
CNC(=O)c1ccc(N2C(=S)N(c3ccc(C#N)cc3C(F)(F)F)C(=O)C23CCC3)cc1F    1500

Enquiry: Look up IC50 for this molecule: CNC(=O)c1ccc(N2C(=S)N(c3ccc(C#N)c(OC)c3F)C(=O)C2(C)C)cc1F
Return: 520

====

System: Prostate-specific Antigen (PSA) production in LNCaP cells
Assay: PSA assay: inhibition of PSA production in LNCaP cells (ELISA)
Type: cell-based
Conditions: Homo sapiens, 72 h, R1881 1 ng/ml, three days, seven point assay
Metric: IC50 (nM)
Give bare numbers, in nM.

CNC(=O)c1ccc(N2C(=S)N(c3ccc(C#N)cc3OC(F)(F)F)C(=O)C23CCC3)cc1F    1400
CNC(=O)c1ccc(N2C(=S)N(c3ccc(C#N)cc3F)C(=O)C23CCC3)cc1F    1400
Cc1ccc(N2C(=S)N(c3ccc(C#N)c(C#N)c3)C(=O)C2(C)C)cc1F    290
COc1c(C#N)ccc(N2C(=O)C(C)(C)N(c3ccc(F)cc3)C2=S)c1F    290
Cc1ccc(N2C(=S)N(c3ccc(C#N)c(C(F)(F)F)c3F)C(=O)C2(C)C)cn1    350
CNC(=O)c1ccc(N2C(=S)N(c3ccc(C#N)c(C#N)c3)C(=O)C23CCC3)cc1F    980

Okay, here is my list. What is IC50 for each of these?
1. CC1(C)C(=O)N(c2ccc(C#N)c(Cl)c2F)C(=S)N1c1ccc(S(C)(=O)=O)cc1
2. CNC(=O)c1ccc(N2C(=S)N(c3ccc(C#N)cc3C)C(=O)C23CCC3)cc1F
3. CNC(=O)c1ccc(N2C(=S)N(c3ccc(C#N)cc3Cl)C(=O)C23CCC3)cc1F

Return:
1: 630; 2: 1500; 3: 2400
